TARGET_ENTITY: CgNce103 (Nakaseomyces glabratus, UniProt Q6FTL6)
Sequence (Q6FTL6 1-219): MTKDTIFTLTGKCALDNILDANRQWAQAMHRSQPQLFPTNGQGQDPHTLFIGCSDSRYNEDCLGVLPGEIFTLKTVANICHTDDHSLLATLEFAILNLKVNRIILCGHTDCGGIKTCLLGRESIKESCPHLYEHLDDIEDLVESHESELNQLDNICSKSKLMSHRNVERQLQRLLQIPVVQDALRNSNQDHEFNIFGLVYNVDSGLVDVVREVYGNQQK
OBSERVATION_TYPE: Ki (nM)
All answers are understood in nM, so give the number only.

{"columns": ["COMPOUND", "OBSERVATION_TYPE", "REPORTED_MEASUREMENT"],
 "data": [
  ["NS(=O)(=O)c1ccc(NC(=S)N/N=C2\\C(=O)Nc3ccc(S(=O)(=O)O)cc32)cc1 [4h]", "Ki", 19.8],
  ["NS(=O)(=O)c1ccc(NC(=S)N/N=C2\\C(=O)Nc3ccc([N+](=O)[O-])cc32)cc1 [4i]", "Ki", 42.1],
  ["NS(=O)(=O)c1ccc(NC(=S)N/N=C2\\C(=O)Nc3ccc(Cl)cc32)cc1 [4e]", "Ki", 41.3],
  ["NS(=O)(=O)c1ccc(NC(=S)N/N=C2\\C(=O)Nc3ccccc32)cc1 [4a]", "Ki", 63.9],
  ["NS(=O)(=O)c1ccc(NC(=S)N/N=C2\\C(=O)Nc3ccc(I)cc32)cc1 [4g]", "Ki", 19.8]
]}

Which Ki value belongs to NS(=O)(=O)c1ccc(NC(=S)N/N=C2\C(=O)Nc3c(Cl)cc(Cl)cc32)cc1 [4l] ?
6.4

Which Ki value belongs to NS(=O)(=O)c1ccc(NC(=S)N/N=C2\C(=O)Nc3c(Br)cc(Br)cc32)cc1 [4m] ?
46.6

Which Ki value belongs to Cc1ccc2c(c1)/C(=N/NC(=S)Nc1ccc(S(N)(=O)=O)cc1)C(=O)N2 [4b] ?
54

Which Ki value belongs to NS(=O)(=O)c1ccc(NC(=S)N/N=C2\C(=O)Nc3ccc(OC(F)(F)F)cc32)cc1 [4c] ?
53.7

Which Ki value belongs to NS(=O)(=O)c1ccc(NC(=S)N/N=C2\C(=O)Nc3ccc(F)cc32)cc1 [4d] ?
34.7

Which Ki value belongs to NS(=O)(=O)c1ccc(NC(=S)N/N=C2\C(=O)Nc3ccc(Br)cc32)cc1 [4f] ?
51.6

Which Ki value belongs to NS(=O)(=O)c1ccc(NC(=S)N/N=C2\C(=O)Nc3c(F)cccc32)cc1 [4j] ?
15

Which Ki value belongs to NS(=O)(=O)c1ccc(NC(=S)N/N=C2\C(=O)Nc3c(Cl)cccc32)cc1 [4k] ?
12.8

All figures here come from paper PMC6366411.
